Where do the numbers come from? From patent EP4624492A1.

molecular target: T1, human CCR8 (human, UniProt P51685 1-355); assay: flow cytometry, hybridoma supernatant on CHOK1-hCCR8 cells
T1 construct: whole, on cells; the cell line is named under assay; also called hCCR8
T1 sequence (P51685 whole entry): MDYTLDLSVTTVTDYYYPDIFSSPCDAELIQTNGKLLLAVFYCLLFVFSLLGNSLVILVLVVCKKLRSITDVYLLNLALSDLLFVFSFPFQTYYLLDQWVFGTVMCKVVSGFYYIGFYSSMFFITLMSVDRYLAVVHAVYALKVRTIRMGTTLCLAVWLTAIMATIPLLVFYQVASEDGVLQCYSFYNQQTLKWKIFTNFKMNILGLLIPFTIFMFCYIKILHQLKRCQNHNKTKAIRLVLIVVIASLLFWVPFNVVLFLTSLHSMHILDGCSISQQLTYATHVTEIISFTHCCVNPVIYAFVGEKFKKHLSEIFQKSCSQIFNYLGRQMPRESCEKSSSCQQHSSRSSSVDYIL
metric_name: MFI (MFI)
Answer format: numeric, MFI implied, no suffix.

// query Value lookup for MFI; key = 27B9-1G3 (antibody, V domains shown, Murine hybridoma antibody (supernatant or Protein A purified); also called 27B9-1G3 hybridoma antibody) VH: EIQLQQSGPELEKPGASVKISCKASGYSFTGYNMNWVKKSNGKSLEWIGNIDPYYGGTNYNQKFKGKATLTVDKSSSTAYMQLKSLTSEDSAVYYCARETWFITTGVIKKGFYFDYWGQGTTLTVSS VL: EIVLTQSPTTMAASPGEKITLACSASSIISSNYLHWYQQKPGFSPKLLIYRTSSLASGVPARFSGSGSGTSYSLTIGTMEAEDVATYYCQQGSSIPRTFGGGTKLEIK
// result 2660

// query Another binder to look at: 563E10E12 (antibody, V domains shown, Murine hybridoma antibody; also called 563E10E12 hybridoma antibody) VH: EVQLIESGGGLVQPKGSLKLSCAASGFNFNAYAMNWVRQAPGKGLEWVARIRSKSNNFATYYADSVTDRFTISRDDSESMLYLQMNNLKTEDTAMYYCVRHGRRDLLYSMDFWGQGTSVTVSS VL: DVVMTQAAFSNPVTLGTSTSISCRSSKSLLHSNGITYLFWYLQKPGQSPQLLIYQMSNLASGVPDRFSGSGSGTDFTLRISRVEAEDVGVYYCAQSLELPLTFGGGTKLEIK
// result 6370

// query Another binder to look at: 569D11B5 (antibody, V domains shown, Murine hybridoma antibody; also called 569D11B5 hybridoma antibody) VH: EVQLIESGGGLVQPKGSLKLSCAASGFNFNAYAMNWVRQAPGKGLEWVARIRSKSNDFATYYADSVKGRFTISRDDSENMLFLQMNNLKTEDTAMYYCVRHGRRDLLYSMDFWGQGTSVTVSS VL: DIVMTQAAFSNPVTLGTSASISCRSSKSLLHSNGITYLFWYLQKPGQSPQLLIYQMSNLASGVPDRFSGSGSGTDFTLRISRVEAEDVGVYYCAQSLELPLTFGGGTKLEIK
// result 5800

// query Another binder to look at: 559E1B10 (antibody, V domains shown, Murine hybridoma antibody; also called 559E1B10 hybridoma antibody) VH: KVQLQQSGPVLVKPGASVKMSCKASGYTFTDYYVNWMKQNYGKSPEWIGVINPHNGDTRYNQKFKGKATLTVDKSSSTANMELTSLTSGDSAVYYCASWLRRGYYFDSWGQGTTLTVSS VL: DIVMTQSPATLSVTPGDRVSLSCRASQSISDYLHWYQQKSHESPRLLLKYVSQSISGIPSRFSGSGSGSDFTLTINSVEPEDVGVYYCQNGHSFPLTFGAGTKLELK
// result 7350
